Reference for the values: ChEMBL document CHEMBL4393707

assay: Cytotoxicity against African green monkey Vero cells assessed as reduction in cell viability after 72 hrs by MTT assay; assay type: cell-based; details: chlorocebus sabaeus
PROPERTY_NAME: CC50 at 72 h

What value of CC50 at 72 h has been recorded for this entry: C#CCOc1cccc(-n2c(/C=C/c3ccc(C#N)cc3)nc3cccc(F)c3c2=O)c1
5 to 10 µg/mL

What value of CC50 at 72 h has been recorded for this entry: C#Cc1cccc(-n2c(/C=C/c3ccc(C#N)cc3)nc3cccc(F)c3c2=O)c1
> 10 µg/mL

What value of CC50 at 72 h has been recorded for this entry: N#Cc1ccc(/C=C/c2nc3ncccc3c(=O)n2-c2ccc(S)cc2)cc1
> 10 µg/mL

What value of CC50 at 72 h has been recorded for this entry: N#Cc1ccc(/C=C/c2nc3cccc(F)c3c(=O)n2-c2cccc(O)c2)cc1
5 to 100 µg/mL

What value of CC50 at 72 h has been recorded for this entry: Cc1nc2cc(-c3ccc(F)cc3)ccc2c(=O)n1-c1cccc(Cl)c1
> 15 µg/mL

What value of CC50 at 72 h has been recorded for this entry: C#CCNc1ccc2c(=O)n(-c3ccccc3)c(C)nc2c1
> 100 µg/mL

* * *

test system: Staphylococcus aureus; experiment: Antibacterial activity against Staphylococcus aureus ATCC 29213 incubated for 16 to 18 hrs by broth microdilution assay; assay type: functional
Consider the following compounds; for each one, report its MIC.

What value of MIC has been recorded for this entry: Cc1cc(-n2cc(CNc3ccc4c(=O)n(-c5ccccc5)c(C)nc4c3)nn2)ccc1[N+](=O)[O-]
> 64 µg/mL

What value of MIC has been recorded for this entry: N#Cc1ccc(/C=C/c2nc3ccccc3c(=O)n2Cc2ccc(F)cc2)cc1
> 64 µg/mL

What value of MIC has been recorded for this entry: N#Cc1ccc(/C=C/c2nc3cc(-c4ccccc4)ccc3c(=O)n2-c2cccc(Cl)c2)cc1
> 64 µg/mL

What value of MIC has been recorded for this entry: Cc1nc2ccc(OCc3cn(-c4ccc(Cl)cc4)nn3)cc2c(=O)n1Cc1ccccc1
> 64 µg/mL

What value of MIC has been recorded for this entry: N#Cc1ccc(/C=C/c2nc3ccc(OCc4cn(-c5ccc(F)c(Cl)c5)nn4)cc3c(=O)n2Cc2ccccc2)cc1
> 64 µg/mL

What value of MIC has been recorded for this entry: N#Cc1ccc(/C=C/c2nc3ncccc3c(=O)n2-c2cccc(O)c2)cc1
> 64 µg/mL

What value of MIC has been recorded for this entry: Cc1nc2ccc(-c3ccc(F)cc3)cc2c(=O)n1-c1cccc(Cl)c1
> 64 µg/mL
